B1: ZNF232 (parent)
chain: FPKSEQVYLHFLSVVTEDGPEPKD

Variants of: B1
Assay: protein stability index of a GFP-peptide fusion (GPS, HEK-293T) (PSI 1-6); higher = more stable;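 also: lentivirally expressed fusions sorted by FACS into six bins by GFP to DsRed ratio, PSI derived from sequencing read proportions per bin multiplied by bin number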
Settings: c terminus: a fixed tail appended
The following variants are shown together with reported protein stability index values.
Number, no unit, nothing else.

| Change | Test result |
| --- | --- |
| S13R | 1.98 |
| E17N | 1.66 |
| P20I | 2.25 |
| G19A | 2.33 |
| E5I | 2.23 |
| Y8G | 2.15 |

[in] For the variant S13H , what protein stability index is on record?
[out] 1.81

[in] Fill in: protein stability index of L12M is ___
[out] 3.84

[in] What does the record list as protein stability index for Q6D ?
[out] 2.87

[in] What does the record list as protein stability index for S13K ?
[out] 2.48

[in] I'd like to know its protein stability index. The variant in question is Y8V
[out] 1.98
